Recorded log10(MIC) by entry
tested on: Klebsiella pneumoniae; assay: In vitro minimum inhibitory concentration was measured against Klebsiella pneumoniae A strain.; type: functional
Transform log10 | Measure MIC | Unit µg/mL

{"Compound": "O=C(O)c1cn(C2CC2)c2cc(N3CCNCC3)c(F)cc2c1=O [CIPROFLOXACIN]", "log10(MIC)": -0.60}

Task item: Provide the reported log10(MIC) (system: Klebsiella pneumoniae) for `CCN1CCN(C(=O)N[C@@H](C(=O)N[C@@H]2C(=O)N3C(C(=O)O)=C(CN4CCN(c5cc6c(cc5F)c(=O)c(C(=O)O)cn6C5CC5)CC4)CS[C@H]23)c2ccc(O)cc2)C(=O)C1=O`
Reply: -0.30

Task item: Please report log10(MIC) with Klebsiella pneumoniae for item `Nc1nc(/C(=N/OCC(=O)O)C(=O)N[C@@H]2C(=O)N3C(C(=O)O)=C(CN4CCN(c5cc6c(cc5F)c(=O)c(C(=O)O)cn6C5CC5)CC4)CS[C@H]23)cs1` .
Reply: 0.00

Task item: Enter measured log10(MIC), system Klebsiella pneumoniae, for the compound shown: CO/N=C(\C(=O)N[C@@H]1C(=O)N2C(C(=O)O)=C(COC(C)=O)CS[C@H]12)c1csc(N)n1 [CEFOTAXIME]
Reply: -1.51

Task item: Recall the reported log10(MIC) of `CO/N=C(\C(=O)N[C@@H]1C(=O)N2C(C(=O)O)=C(CN3CCN(c4cc5c(cc4F)c(=O)c(C(=O)O)cn5C4CC4)CC3)CS[C@H]12)c1csc(N)n1` on Klebsiella pneumoniae and write it down.
Reply: 0.00
